Provenance of the data: ChEMBL document CHEMBL1153192

- assay: Drug level in APP50/16 tg mouse brain at 60 umol/kg, po after 4 hrs
- Type: ADME, organism-based
- applied_conditions: APP50/16 transgenic, read-out: Drug uptake
Consider the following compounds and their measured concentration at 4 h readings.
Field: numeric (nM). Do not append units.

Consider the reported concentration at 4 h for these compounds:
record_smiles: COCc1cc2cc(n1)OCCCCOc1cccc(c1)C[C@@H]([C@H](O)CNC1(c3cccc(C(C)C)c3)CC1)NC2=O
concentration at 4 h (nM): 540
--
record_smiles: COCc1cc2cc(c1)C(=O)N[C@H]([C@H](O)CNC1(c3cccc(C(C)C)c3)CC1)Cc1cccc(c1)OCCCCN2
concentration at 4 h (nM): 250
--
record_smiles: Cc1cc2cc(n1)OCCCCOc1cccc(c1)C[C@@H]([C@H](O)CNC1(c3cccc(C(C)C)c3)CC1)NC2=O
concentration at 4 h (nM): 320

Continue with the next compound.
Need concentration at 4 h, item Cc1cc2cc(n1)OCCCCOc1cccc(c1)C[C@@H]([C@H](O)CNCc1cccc(C(C)C)c1)NC2=O
40
